# studySystem: Cytochrome P450 1A2 (Homo sapiens)
# protocolDescription: Cytochrome P450 Family 1 Subfamily A Member 2 (CYP1A2) small molecule antagonists: luciferase reporter qHTS assay (AID 1671199); note: nearly all actives have a fitted effect of over 50% in size
# measurementContext: P450-Glo CYP1A2 enzyme, luciferin luminescence, 1 h; series mostly up to 115 µM
Results filed as inconclusive are left out. The source made the active and inactive calls. Calls come from the whole dose curve; as a rule, active = well fitted inhibition curve with a large enough effect in the repeat runs; inconclusive = weak or mixed curves; inactive = no such curve, though single readings can be large or run the other way.
Outcome codes: TRUE (active), FALSE (inactive)

>  <compound>
CCCCCCCC(=O)OCC(COC(=O)CCCCCCC)OC(=O)CCCCCCC

>  <studySystem>
Cytochrome P450 1A2 (Homo sapiens)

>  <assignedCategory>
FALSE

$$$$
>  <compound>
CN(C)CCOC(C)(c1ccccc1)c1ccccn1 (stereo not drawn)

>  <studySystem>
Cytochrome P450 1A2 (Homo sapiens)

>  <assignedCategory>
FALSE

$$$$
>  <compound>
O=C1OC2(c3ccccc31)c1cc(Br)c(O)c(Br)c1Oc1c2cc(Br)c(O)c1Br

>  <studySystem>
Cytochrome P450 1A2 (Homo sapiens)

>  <assignedCategory>
TRUE

$$$$
>  <compound>
CCCc1cc(=O)[nH]c(=S)[nH]1

>  <studySystem>
Cytochrome P450 1A2 (Homo sapiens)

>  <assignedCategory>
FALSE

$$$$
>  <compound>
NC(=O)n1c(O)c(C(=O)c2cccs2)c2cc(Cl)ccc21

>  <studySystem>
Cytochrome P450 1A2 (Homo sapiens)

>  <assignedCategory>
TRUE

$$$$
>  <compound>
O=c1[nH]cnc2c1ncn2[C@H]1CC[C@@H](CO)O1

>  <studySystem>
Cytochrome P450 1A2 (Homo sapiens)

>  <assignedCategory>
FALSE

$$$$
>  <compound>
C=C(C)C(=O)OCC(C)O (stereo not drawn)

>  <studySystem>
Cytochrome P450 1A2 (Homo sapiens)

>  <assignedCategory>
FALSE

$$$$
>  <compound>
Cc1cc(C)nc(NS(=O)(=O)c2ccc(N)cc2)n1

>  <studySystem>
Cytochrome P450 1A2 (Homo sapiens)

>  <assignedCategory>
FALSE

$$$$
>  <compound>
O=CC(=O)c1ccccc1

>  <studySystem>
Cytochrome P450 1A2 (Homo sapiens)

>  <assignedCategory>
TRUE

$$$$
>  <compound>
Nc1ccc(O)c([N+](=O)[O-])c1

>  <studySystem>
Cytochrome P450 1A2 (Homo sapiens)

>  <assignedCategory>
TRUE

$$$$
>  <compound>
COc1ccc(C(Cl)=C(c2ccc(OC)cc2)c2ccc(OC)cc2)cc1

>  <studySystem>
Cytochrome P450 1A2 (Homo sapiens)

>  <assignedCategory>
FALSE

$$$$
>  <compound>
CN1CCC[C@H]1c1cccnc1

>  <studySystem>
Cytochrome P450 1A2 (Homo sapiens)

>  <assignedCategory>
FALSE

$$$$
>  <compound>
Nc1ccc2c(c1)CN1C(=O)c3ccccc3C1=N2

>  <studySystem>
Cytochrome P450 1A2 (Homo sapiens)

>  <assignedCategory>
TRUE

$$$$
>  <compound>
O=C(Nc1ncc([N+](=O)[O-])s1)c1cccs1

>  <studySystem>
Cytochrome P450 1A2 (Homo sapiens)

>  <assignedCategory>
TRUE

$$$$
>  <compound>
COc1ccc2cc(S(=O)(=O)N[C@H](CC(=O)N[C@H](Cc3ccc(CN4[C@H](C)CCC[C@@H]4C)cc3)C(=O)N(C)C(C)C)c3ccc4c(c3)OCO4)ccc2c1

>  <studySystem>
Cytochrome P450 1A2 (Homo sapiens)

>  <assignedCategory>
FALSE

$$$$
>  <compound>
Nc1ccc([N+](=O)[O-])cc1O

>  <studySystem>
Cytochrome P450 1A2 (Homo sapiens)

>  <assignedCategory>
TRUE

$$$$
>  <compound>
CN(N=O)C(=O)N[C@@H]1[C@@H](O)[C@H](O)[C@@H](CO)O[C@@H]1O

>  <studySystem>
Cytochrome P450 1A2 (Homo sapiens)

>  <assignedCategory>
FALSE

$$$$
>  <compound>
NC(CO)(CO)CO

>  <studySystem>
Cytochrome P450 1A2 (Homo sapiens)

>  <assignedCategory>
FALSE

$$$$
>  <compound>
Cc1ncc([N+](=O)[O-])n1C

>  <studySystem>
Cytochrome P450 1A2 (Homo sapiens)

>  <assignedCategory>
FALSE

$$$$
>  <compound>
Cc1cn([C@H]2C=C[C@@H](CO)O2)c(=O)[nH]c1=O

>  <studySystem>
Cytochrome P450 1A2 (Homo sapiens)

>  <assignedCategory>
FALSE

$$$$
>  <compound>
C1CCC(C(CC2CCCCN2)C2CCCCC2)CC1 (stereo not drawn)

>  <studySystem>
Cytochrome P450 1A2 (Homo sapiens)

>  <assignedCategory>
FALSE

$$$$
>  <compound>
NC(=O)c1cccnc1

>  <studySystem>
Cytochrome P450 1A2 (Homo sapiens)

>  <assignedCategory>
FALSE

$$$$
>  <compound>
C[C@](N)(Cc1ccc(O)c(O)c1)C(=O)O

>  <studySystem>
Cytochrome P450 1A2 (Homo sapiens)

>  <assignedCategory>
FALSE

$$$$
